// data source = ChEMBL document CHEMBL3400063

Assay: AUC (infinity) in Balb nu/nu mouse at 10 mg/kg, po by LC/MS/MS analysis
Assay type: ADME, organism-based
Parameters: dose 10 mg/kg, route oral, time infinity
Conditions: plasma
endpoint-label: AUC(0-inf) (µM·h)

>>> result("CCc1ccc(Cl)cc1-n1cc(-c2cc(N)ncn2)cc1C(N)=O")
21
>>> result("CCc1ccc(Cl)cc1-n1cc(-c2ncnn3cccc23)cc1C(N)=O")
0.07

I: Cc1ccc(Cl)cc1-n1cc(-c2ncnc3[nH]ccc23)cc1C(N)=O
II: CCc1ccc(Cl)cc1-n1cc(-c2cc(NC)ncn2)cc1C(N)=O
# min-compare on AUC(0-inf) between I and II Kindly state the label of the option you pick. I
(I: 1.6 µM·h, II: 2.9 µM·h)

====

Organism: Homo sapiens
Assay: Selectivity ratio of IC50 for recombinant epitope-tagged JAK3 (781 to 1124) (unknown origin) to IC50 for recombinant epitope-tagged JAK2 (808 to 1132) (unknown origin)
endpoint-label: Ratio IC50

Past entries and their recorded results:
>>> result("CCc1ccc(Cl)cc1-c1cc(-c2ncnc3[nH]ccc23)[nH]c1C(N)=O")
7
>>> result("Cc1ccc(Cl)cc1-n1cc(-c2ncnc3[nH]ccc23)cc1C(N)=O")
5
>>> result("CCc1ccc(Cl)cc1-n1cc(-c2ncnn3cccc23)cc1C(N)=O")
15
>>> result("CCc1ccc(Cl)cc1-n1cc(-c2cc(NC)ncn2)cc1C(N)=O")
11

A: Cc1ccc(Cl)cc1-c1cn(-c2ncnc3[nH]ccc23)cc1C(N)=O
B: Cc1ccc(Cl)cc1-c1cc(-c2ncnc3[nH]ccc23)[nH]c1C(N)=O
C: NC(=O)c1cc(-c2ncnc3[nH]ccc23)cn1-c1cc(C(F)(F)F)ccc1Cl
Sort the compounds on Ratio IC50; start with the lowest figure. Provide your answer as the labels ordered per the instruction. C, B, A
(C: 4, B: 6, A: 14)
